Reported pKd values are given for each entry in this list.
study system: MAGI2_4, Q86UL8
Sequence (Q86UL8 772-865): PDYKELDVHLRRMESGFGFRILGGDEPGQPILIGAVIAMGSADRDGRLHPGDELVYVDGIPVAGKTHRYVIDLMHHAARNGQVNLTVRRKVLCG
method summary: holdup assay
Parameters: key: below the threshold = too weak to quantify, mostly under pKd 3.1 to 4
measurement setup: plain residues with an end cap or a label only (N-terminal biotin on a linker: ttds)

{"binder": "SSRTRRETQL [HPV16-E6, P03126]", "pKd": 3.89}
{"binder": "RSLEEEESQL [GRASP, Q7Z6J2]", "pKd": 3.7}
{"binder": "SVWLRKETRV [CYSLTR2, Q9NS75]", "pKd": 4.06}
